Tested on: CCRF-CEM/VBL100
test-description: cells
Type: cell-based, human
recorded-conditions: Table 7; CEM/VBL; listed as synthetic epothilone B; read-out: IC50
result-type: pIC50
The meaning of pIC50 here: minus log10 of the concentration in molar units.

For the molecule C/C(=C\c1csc(C)n1)[C@@H]1C[C@@H]2O[C@]2(C)CCC[C@H](C)[C@H](O)[C@@H](C)C(=O)C(C)(C)[C@@H](O)CC(=O)O1 [#8, epothilone B] , report pIC50.
8.53

---

Tested on: A549 Human Lung Carcinoma
test-description: A549 xenograft
Format: in vivo, nude mice
recorded-conditions: Q2D x 3: dEpoB 30 mg/kg 18 hr i.v. infusion, Taxol 15 mg/kg 6 hr infusion, VBL 2 and VP-16 25 mg/kg i.v. inj
The compounds listed here are annotated with their Average Body Weight (change), Day 15.
// note: answer is a bare numeric in g

Tell me Average Body Weight (change), Day 15 reported for C/C1=C/C[C@@H](/C(C)=C/c2csc(C)n2)OC(=O)C[C@H](O)C(C)(C)C(=O)[C@H](C)[C@@H](O)[C@@H](C)CCC1
-5.6

Respond only with Average Body Weight (change), Day 15 recorded for COc1cc([C@@H]2c3cc4c(cc3[C@@H](O[C@@H]3O[C@@H]5CO[C@@H](C)O[C@H]5[C@H](O)[C@H]3O)[C@H]3COC(=O)[C@H]23)OCO4)cc(OC)c1O [Etoposide, etoposide]
-2.2

---

Tested on: CCRF-CEM human T-cell acute lymphoblastic leukemia cell line
test-description: XTT cytotoxicity (cell growth inhibition), CCRF-CEM
recorded-conditions: Table 6; single determinations; listed as 6
result-type: IC50

Look up IC50 of CC(=Cc1csc(C)n1)C1CC=CCCCC(C)C(O)C(C)C(=O)C(C)(C)C(O)CC(=O)O1 (stereo not shown) [#6] and report it.
52 nM

---

Listing of recorded LD50 by entry.
test-description: in vivo
recorded-conditions: male, athymic nude (nu/nu), outbred, Swiss background, mouse, in vivo, ip
Where a name gives a salt, the structure may show the parent alone.

{"columns": ["compound", "val"],
 "data": [
  ["CC(=O)O[C@H]1C(=O)[C@@]2(C)[C@H]([C@H](OC(=O)c3ccccc3)[C@]3(O)C[C@H](OC(=O)[C@H](O)[C@@H](NC(=O)c4ccccc4)c4ccccc4)C(C)=C1C3(C)C)[C@]1(OC(C)=O)CO[C@@H]1C[C@@H]2O [Taxol ®, paclitaxel]", "12 mg/kg"]
]}

Could you now consider this next compound?
Provide measured LD50 value, entry: COc1cccc2c1C(=O)c1c(O)c3c(c(O)c1C2=O)C[C@@](O)(C(=O)CO)C[C@@H]3O[C@H]1C[C@H](N)[C@H](O)[C@H](C)O1 [Adriamycin, doxorubicin or adriamycin HCl]
3 mg/kg

---

System: CCRF-CEM/VBL100
test-description: cells
Format: cell-based, human
recorded-conditions: Table 7; CEM/VBL; read-out: IC50
IC50 less than 0.1 µM is Fulfilled; IC50 greater than or equal to 0.1 µM is Not fulfilled.

Quick check: does C/C1=C/C[C@@H](/C(C)=C/c2ccccc2)OC(=O)C[C@H](O)C(C)(C)C(=O)[C@H](C)[C@@H](O)[C@@H](C)CCC1 have IC50 under 0.1 µM?
Not fulfilled

---

# Average Tumor Volume (T/C), Day 17 listing for each entry below
Test system: human mammary carcinoma MX-1 xenograft
recorded-conditions: high doses: dEpoB 25, EpoB 0.6, Taxol 10, Vinblastine 0.4 mg/kg i.p. Q2D from day 7
Procedure: DMSO was used as a vehicle for epothilones. Each mouse received ≦40 μL DMSO in all experiments. Athymic nude mice (nu/nu) were used for MX-1 and MCF-7/Adr human mammary carcinoma xenografts. Mice were obtained from Taconic Laboratory Animals and Service (Germantown, N.Y.: outbred, Swiss background).
Answer format: value, then unit.

// worked examples, Average Tumor Volume (T/C), Day 17 included
{"columns": ["compound-smiles", "study-target", "Average Tumor Volume (T/C), Day 17"],
 "data": [
  ["C/C1=C/C[C@@H](/C(C)=C/c2csc(C)n2)OC(=O)C[C@H](O)C(C)(C)C(=O)[C@H](C)[C@@H](O)[C@@H](C)CCC1", "human mammary carcinoma MX-1 xenograft", "0.04 T/C"],
  ["C/C(=C\\c1csc(C)n1)[C@@H]1C[C@@H]2O[C@]2(C)CCC[C@H](C)[C@H](O)[C@@H](C)C(=O)C(C)(C)[C@@H](O)CC(=O)O1", "human mammary carcinoma MX-1 xenograft", "0.74 T/C"]
]}

// moving on: another record for Average Tumor Volume (T/C), Day 17
Provide Average Tumor Volume (T/C), Day 17 value for the following compound: CC(=O)O[C@H]1C(=O)[C@@]2(C)[C@H]([C@H](OC(=O)c3ccccc3)[C@]3(O)C[C@H](OC(=O)[C@H](O)[C@@H](NC(=O)c4ccccc4)c4ccccc4)C(C)=C1C3(C)C)[C@]1(OC(C)=O)CO[C@@H]1C[C@@H]2O
0.11 T/C

---

System: CCRF-CEM/VBL100
test-description: cells
Format: cell-based, human
recorded-conditions: Table 7; CEM/VBL; read-out: IC50
result-type: IC50 (µM)
# number only, unit µM dropped from output

Sample records with IC50:
{"columns": ["compound", "study-target", "IC50 / µM"],
 "data": [
  ["CC/C1=C/C[C@@H](/C(C)=C/c2csc(C)n2)OC(=O)C[C@H](O)C(C)(C)C(=O)[C@H](C)[C@@H](O)[C@@H](C)CCC1", "CCRF-CEM/VBL100", 0.077],
  ["C/C(=C\\c1csc(C)n1)[C@@H]1C[C@@H]2O[C@@H]2CCC[C@H](C)[C@H](O)[C@@H](C)C(=O)C(C)(C)[C@@H](O)CC(=O)O1", "CCRF-CEM/VBL100", 0.0203],
  ["CC(=Cc1csc(C)n1)C1CC2OC2CCCC(C)C(O)C(C)C(=O)C(C)(C)C(O)CC(=O)O1 (centres unmarked)", "CCRF-CEM/VBL100", 35.2]
]}

// next entry
Report IC50 for C/C(=C\c1csc(C)n1)[C@@H]1C/C=C\CCCC[C@H](O)[C@@H](C)C(=O)C(C)(C)[C@@H](O)CC(=O)O1
5.75

---

pIC50 values, listed per item
Test system: CCRF-CEM/VBL100
test-description: cells
Assay type: cell-based, human
recorded-conditions: read-out: IC50
The read-out pIC50 is expressed as -log10 of concentration in moles per litre.

{"columns": ["compound", "pIC50"],
 "data": [
  ["CC(=Cc1csc(C)n1)C1CC=CCCCC(C)C(O)C(C)C(=O)C(C)(C)C(O)CC(=O)O1 (stereo not drawn)", 7.46],
  ["C/C1=C/C[C@@H](/C(C)=C/c2ccccc2)OC(=O)C[C@H](O)C(C)(C)C(=O)[C@H](C)[C@@H](O)[C@@H](C)CCC1", 6.84]
]}

Next compound, pIC50 to be filled in.
State pIC50 on CCRF-CEM/VBL100. Entry: C/C(=C\c1coc(C)n1)[C@@H]1C/C=C\CCC[C@H](C)[C@H](O)[C@@H](C)C(=O)C(C)(C)[C@@H](O)CC(=O)O1
7.31

---

Test system: CCRF-CEM/VM1
test-description: cells
Assay type: cell-based, human
recorded-conditions: Table 1A; XTT, 72 h; read-out: IC50
result-type: pIC50
Note on units: pIC50 is unitless, being -log10 of a concentration expressed in mol/L.

Use these answered entries as a reference point.
{"columns": ["compound-smiles", "val"],
 "data": [
  ["C/C(=C\\c1csc(C)n1)[C@@H]1C/C=C\\CCC[C@H](C)[C@H](O)[C@@H](C)C(=O)C(C)(C)[C@@H](O)CC(=O)O1", 7.89],
  ["C/C(=C\\c1csc(C)n1)[C@@H]1C[C@@H]2O[C@]2(C)CCC[C@H](C)[C@H](O)[C@@H](C)C(=O)C(C)(C)[C@@H](O)CC(=O)O1", 8.89]
]}

Answer with reported pIC50 of C/C1=C/C[C@@H](/C(C)=C/c2csc(C)n2)OC(=O)C[C@H](O)C(C)(C)C(=O)[C@H](C)[C@@H](O)[C@@H](C)CCC1
7.85

---

Tested on: CCRF-CEM/VBL100
test-description: cells
Assay type: cell-based, human
recorded-conditions: Table 7; CEM/VBL; read-out: IC50
Output true for records whose IC50 is lower than 6 µM, false for records at or above 6 µM.

These recorded examples may help you get a feel for the data.
{"columns": ["compound", "study-target", "discrete-label"],
 "data": [
  ["C/C(=C\\c1csc(C)n1)[C@@H]1C[C@H]2O[C@H]2CCCC[C@H](O)[C@@H](C)C(=O)C(C)(C)[C@@H](O)CC(=O)O1", "CCRF-CEM/VBL100", "false"],
  ["CC(=Cc1csc(C)n1)C1CC=CCCCC(C)C(O)C(C)C(O)C(C)(C)C(O)CC(=O)O1 (centres unmarked)", "CCRF-CEM/VBL100", "false"],
  ["CC[C@@]12CCC[C@H](C)[C@H](O)[C@@H](C)C(=O)C(C)(C)[C@@H](O)CC(=O)O[C@H](/C(C)=C/c3csc(C)n3)C[C@@H]1O2", "CCRF-CEM/VBL100", "true"]
]}

Input CC(=Cc1csc(C)n1)C1CC2OC2CC=CCCCCC(C)(C)CCC(=O)O1 (centres unmarked) ; condition: IC50 strictly below 6 µM. Does it hold?
false

Is it true that IC50 reported for C/C1=C/C[C@@H](/C(C)=C/c2csc(C)n2)OC(=O)C[C@H](O)C(C)(C)C(=O)[C@H](C)[C@@H](O)[C@@H](C)CCC1 is less than 6 µM?
true
